Quick reference: normalized growth of the listed items.
Test: chemical genetic growth profiling, strain panel (AID 1159580);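 also: tested at 20 µM; growth read once vehicle control cultures reached saturation at 30 °C; 1 = growth at the plate median or of vehicle wells; lower values mean less growth of the strain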
Conditions: S. cerevisiae deletion strains, growth OD, locus YBL061C, strain skt5, active compounds read low
The whole screen tested about 5,500 compounds, of which about 2,000 (36%) were called active. Another 18% or so got no clear call; they are omitted. Some of the results follow.
Lab note: jot the number down without any unit.

Examples with answers:
CCCc1nc2c(C)cc(-c3nc4ccccc4n3C)cc2n1Cc1ccc(-c2ccccc2C(=O)O)cc1	1.01
COc1cc2c(cc1OC)[C@@]13CCN4CC5=CCOC6CC(=O)N2C1[C@H]6[C@H]5C[C@H]43 (some centres undefined)	0.994
CC(=O)NS(=O)(=O)c1ccc(NC(=O)c2ccccc2C(=O)O)cc1	1.01

// next item, normalized growth requested
Reported normalized growth for CO[C@@]1(NC(=O)Cc2cccs2)C(=O)N2C(C(=O)O)=C(COC(N)=O)CS[C@@H]21 was 0.97

* * *

Test: chemical genetic growth profiling, strain panel (AID 1159580)
Conditions: S. cerevisiae deletion strains, growth OD, locus YPL055C, strain LGE1
About 2,000 (36%) of roughly 5,500 compounds were called active. Not shown: some 18% with an inconclusive outcome. Cut-off read from the data, not from the text of the source: active = normalized growth mostly below about 0.91 (no sharp cut-off); inconclusive = no clear call, values can overlap the other calls; inactive = mostly above about 0.92. The list shows a part of the results.
Your response should consist of one outcome taken from TRUE = active, FALSE = inactive

Solved cases (2 shown):
COc1cc(/C=C/C=O)cc(OC)c1OC	FALSE
C[C@]12Cc3cn4c(nc3C=C1CCC1C2CC[C@@]2(C)[C@H]1CC[C@@]2(O)C#N)nc1ccccc14 (stereo partly drawn)	FALSE

Query: Which outcome was entered for the molecule Cn1cc(C(F)(F)F)nc1-c1ccc(OCC(O)CNCCOc2ccc(O)c(C(N)=O)c2)cc1 (stereo not drawn) in this test?
Reply: FALSE

Query: Which outcome was entered for the molecule CC(=O)N[C@@H](Cc1c[nH]c2ccccc12)C(=O)O in this test?
Reply: FALSE

Query: Which outcome was entered for the molecule O=C(OC[C@H]1O[C@H](OC(=O)c2cc(O)c(O)c(OC(=O)c3cc(O)c(O)c(O)c3)c2)[C@H](OC(=O)c2cc(O)c(O)c(OC(=O)c3cc(O)c(O)c(O)c3)c2)[C@@H](OC(=O)c2cc(O)c(O)c(OC(=O)c3cc(O)c(O)c(O)c3)c2)[C@@H]1OC(=O)c1cc(O)c(O)c(OC(=O)c2cc(O)c(O)c(O)c2)c1)c1cc(O)c(O)c(OC(=O)c2cc(O)c(O)c(O)c2)c1 in this test?
Reply: TRUE

* * *

Assay: chemical genetic growth profiling, strain panel (AID 1159580)
Settings: S. cerevisiae deletion strains, growth OD, locus YER111C, strain swi4, active compounds read low
The campaign covered roughly 5,500 compounds. About 2,000 (36%) were called active. Roughly 18% stayed inconclusive and do not appear here. The list shows a part of the results.
Quick reference: normalized growth of the listed items.
Lab note: jot the number down without any unit.

Examples with answers:
COc1c2occc2c(OC)c2c(=O)cc(C)oc12	1
COc1cccc(OC)c1C(=O)N[C@@H]1C(=O)N2[C@@H]1SC(C)(C)[C@@H]2C(=O)O	0.995
CC(=O)OC[C@H]1O[C@@H](Oc2cc(OC(C)=O)c3c(=O)cc(-c4ccc(OC(C)=O)cc4)oc3c2)[C@H](OC(C)=O)[C@@H](OC(C)=O)[C@@H]1OC(C)=O	1.03
Cc1onc(-c2ccccc2Cl)c1C(=O)N[C@@H]1C(=O)N2[C@@H]1SC(C)(C)[C@@H]2C(=O)O	1.03
CCCCCCCCCCCCCCCCCCOCC(O)CO (centres undefined)	0.979

Reported normalized growth for CC(=O)OCC1=C(C(=O)O)N2C(=O)[C@@H](NC(=O)CCCC(N)C(=O)O)C2SC1 (some centres undefined) was 0.995

Reported normalized growth for Cc1onc(-c2ccccc2)c1C(=O)NC1C(=O)N2[C@@H]1SC(C)(C)[C@@H]2C(=O)O (some centres undefined) was 1.01

Reported normalized growth for COc1cc(NS(=O)(=O)c2ccc(N)cc2)ncn1 was 0.968

Reported normalized growth for COc1ccc2c(=O)ccoc2c1 was 1.01

* * *

Assay: chemical genetic growth profiling, strain panel (AID 1159580)
Conditions: S. cerevisiae deletion strains, growth OD, locus YBR023C, strain chs3, active compounds read low
The campaign covered roughly 5,500 compounds. About 2,000 (36%) were called active. Roughly 18% stayed inconclusive and do not appear here. This is one part of the list. *1 amine or outer side, *2 acyl side, *3 side chain or, on linkers, in order; H or OH if unused. Where a SMILES comes first, the peptide text is derived from it. Bridges are numbered along the chain shown (N, C = ends). [ ]: non-standard residue; d: D form. The star is where a group is joined. ξ: configuration not given here. ΔAla(E,3-NHCONH2) = NC(=O)N/C=C(/N)C(=O)O; X2 = NC1=NCCC(C(N[*:1])C(=O)[*:2])N1; ξβ3hOrn = NCCCC(N)CC(=O)*; Dap = NC[CH](N)C(=O)O
Quick reference: normalized growth of the listed items.
Lab note: jot the number down without any unit.

NCCCC(N)CC(=O)NCC1NC(=O)C(CO)NC(=O)C(N)CNC(=O)C(C2CCN=C(N)N2)NC(=O)/C(=C\NC(N)=O)NC1=O (stereo not drawn) (H-[Dap]S[Dap](ξβ3hOrn)[ΔAla(E,3-NHCONH2)][X2]; lactam 1-C; configuration not given here)	1.01
COc1ccc2c(c1)[C@]13CCCC[C@H]1[C@H](C2)N(C)CC3	0.99
CCN(CC)CCNC(=O)c1cc(Cl)c(N)cc1OC	0.984

// next item, normalized growth requested
Reported normalized growth for O=c1[nH]cnc2c1ncn2C1O[C@H](CO)[C@@H](O)[C@H]1O (some centres undefined) was 0.998

* * *

Quick reference: normalized growth of the listed items.
Assay: chemical genetic growth profiling, strain panel (AID 1159580);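 also: tested at 20 µM; growth read once vehicle control cultures reached saturation at 30 °C; 1 = growth at the plate median or of vehicle wells; lower values mean less growth of the strain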
Conditions: S. cerevisiae deletion strains, growth OD, locus YCL069W, strain vba3, active compounds read low
The campaign covered roughly 5,500 compounds. About 2,000 (36%) were called active. Another 18% or so got no clear call; they are omitted. The list shows a part of the results.
Lab note: jot the number down without any unit.

NCCNCCNCCN	0.995
COc1cc2cc3c4cc(OC)c(OC)cc4cc[n+]3c(C)c2cc1OC	1.01
NCCc1cc(O)c(O)cc1O	0.966
CC(=O)[C@@]1(O)CCC2C3CCC4=CC(=O)CC[C@]4(C)C3CC[C@@]21C (stereo partly drawn)	0.996
COC1(C)CCC2OC2(C)CCC2C1CC2(C)C (stereo not drawn)	1.02

// next item, normalized growth requested
Reported normalized growth for COc1ccc([C@H]2COc3c(ccc(O)c3OC)C2)c(OC)c1O was 0.988

* * *

Quick reference: normalized growth of the listed items.
Assay: chemical genetic growth profiling, strain panel (AID 1159580);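 also: tested at 20 µM; growth read once vehicle control cultures reached saturation at 30 °C; 1 = growth at the plate median or of vehicle wells; lower values mean less growth of the strain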
Conditions: S. cerevisiae deletion strains, growth OD, locus YIR030C, strain dcg1, active compounds read low
The campaign covered roughly 5,500 compounds. About 2,000 (36%) were called active. Roughly 18% stayed inconclusive and do not appear here. This is one part of the list. Where a SMILES comes first, the peptide text is derived from it. Bridges are numbered along the chain shown (N, C = ends). [ ]: non-standard residue; d: D form. The star is where a group is joined. Octanoyl(6-Me) = CCC(C)CCCCC(=O)*; Dab = NCC[CH](N)C(=O)O
Lab note: jot the number down without any unit.

CCC(C)CCCCC(=O)NC(CCN)C(=O)NC(C(=O)NC(CCN)C(=O)NC1CCNC(=O)C(C(C)O)NC(=O)C(CCN)NC(=O)C(CCN)NC(=O)C(CC(C)C)NC(=O)C(Cc2ccccc2)NC(=O)C(CCN)NC1=O)C(C)O (stereo not drawn) ({Octanoyl(6-Me)}-[Dab]T[Dab][Dab][Dab]FL[Dab][Dab]T; lactam 4-C; configuration not given here)	1.01
CC[C@@H](CO)NC(=O)[C@@H]1C=C2c3cccc4[nH]cc(c34)C[C@H]2N(C)C1	0.991

// next item, normalized growth requested
Reported normalized growth for O=C(O)c1cc(=O)c2cccc(O)c2[nH]1 was 0.99

* * *

Test: chemical genetic growth profiling, strain panel (AID 1159580);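 also: tested at 20 µM; growth read once vehicle control cultures reached saturation at 30 °C; 1 = growth at the plate median or of vehicle wells; lower values mean less growth of the strain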
Settings: S. cerevisiae deletion strains, growth OD, locus YDL074C, strain BRE1, active compounds read low
Hit rate of the full screen: of about 5,500 compounds, about 2,000 (36%) were called active. Inconclusive results (about 18%) are left out. Some of the results follow.
experimental_readout: normalized growth
Lab note: jot the number down without any unit.

Examples with answers:
O=C(OC[C@H]1O[C@H](OC(=O)c2cc(O)c(O)c(OC(=O)c3cc(O)c(O)c(O)c3)c2)[C@H](OC(=O)c2cc(O)c(O)c(OC(=O)c3cc(O)c(O)c(O)c3)c2)[C@@H](OC(=O)c2cc(O)c(O)c(OC(=O)c3cc(O)c(O)c(O)c3)c2)[C@@H]1OC(=O)c1cc(O)c(O)c(OC(=O)c2cc(O)c(O)c(O)c2)c1)c1cc(O)c(O)c(OC(=O)c2cc(O)c(O)c(O)c2)c1	0.148
CNC(Cc1c[nH]c2ccccc12)C(=O)O (centres undefined)	0.981
O=c1oc2c(O)c(O)cc3c(=O)oc4c(O)c(O)cc1c4c23	0.541

// next item, normalized growth requested
Reported normalized growth for CC(=O)N[C@@H](Cc1c[nH]c2ccccc12)C(=O)O was 1.03
